- SYSTEM UNDER TEST: BACE (recombinant human BACE catalytic domain, expressed in CHO cells as BACE-T-IgG, IgG1 removed with thrombin) (human) (UniProt P56817)
- Sequence (P56817 43-460 limits assumed, form in doubt): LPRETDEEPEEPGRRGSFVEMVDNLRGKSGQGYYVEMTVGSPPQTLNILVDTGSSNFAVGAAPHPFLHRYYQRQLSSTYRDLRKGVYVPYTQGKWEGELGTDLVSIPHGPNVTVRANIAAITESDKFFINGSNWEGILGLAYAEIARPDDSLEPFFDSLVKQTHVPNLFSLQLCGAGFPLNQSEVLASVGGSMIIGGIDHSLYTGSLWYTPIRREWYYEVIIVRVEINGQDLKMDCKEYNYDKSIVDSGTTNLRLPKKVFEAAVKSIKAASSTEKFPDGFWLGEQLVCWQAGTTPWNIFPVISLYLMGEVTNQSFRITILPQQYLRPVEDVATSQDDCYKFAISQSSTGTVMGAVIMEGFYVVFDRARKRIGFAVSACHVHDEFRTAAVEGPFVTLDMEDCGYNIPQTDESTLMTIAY
- TEST: fluorescence anisotropy competition against Molecule X on BACE, pH 4.5, lower panel; labelled 'Ka(nM)' on the sheet, it is the dissociation constant of the competing ligand; error 337.16; the text prints it rounded (1073 nM)
ASSAY METRIC: Kd

response.value for Ac-NLTTYPYFIPLP-NH2 […] (field: Kd) = 1.07 µM
